Origin of measurements: PubChem BioAssay (EPA / NIEHS)

- Read-out: ABC Transporter (ABCB11), ABCB11 (gene 8647)
- experiment summary: LTEA_HepaRG_ABCB11: Life Technologies and Expression Analysis (LTEA) Assay for ABC Transporter (ABCB11) using HepaRG (AID 2283463)
- condition summary: mRNA level, 48 h; actives raise or lower the signal
Calls of active or inactive are those of the source. How the source made its calls: active means hit-call score of the fitted dose curve at least 0.9, where 1 is the maximum; inactive means score below 0.9.
Result category, one only: yes (active), no (inactive)

Use the examples below as a reference point.
INSERT INTO assay_data (compound, discrete_label) VALUES
  ('CC(C)C1(C)N=C(c2ncccc2C(=O)O)NC1=O (stereo not drawn)', 'no'),
  ('CCN(CC)C(=O)C(C)Oc1cccc2ccccc12 (stereo not drawn)', 'yes'),
  ('CC(C)NC(=O)N1CC(=O)N(c2cc(Cl)cc(Cl)c2)C1=O', 'no'),
  ('CO/N=C(/C1=NOCCO1)c1ccccc1Oc1ncnc(Oc2ccccc2Cl)c1F', 'yes'),
  ('Nc1c(Cl)c(Cl)nc(C(=O)O)c1Cl', 'no');

q: Just curious, what result did Cc1ccc(N=CN(C)C=Nc2ccc(C)cc2C)c(C)c1 get here?
a: no

q: Write down the call the test reported for this compound. Item: CC(C)N1C(=O)c2ccccc2NS1(=O)=O
a: no

q: Which result was noted for this compound in the test: O=P(O)(O)CCCl
a: no

q: State the result this test recorded for CN=C=S .
a: no

q: Outcome logged for CCCCOCN(C(=O)CCl)c1c(CC)cccc1CC in this assay:
a: no

q: Identify the outcome logged in this assay for the compound shown: Cc1nc(N(C)C)nc(OC(=O)N(C)C)c1C
a: no

q: Could you kindly confirm the outcome this assay logged for CN/C(=N\[N+](=O)[O-])NCc1cnc(Cl)s1 ?
a: no

q: Entry CCC(C)n1c(=O)[nH]c(C)c(Br)c1=O (stereo not drawn) : call = ?
a: yes
